- target_entity: T1, Hu/NoV/GI.1/Norwalk/1968/U.S. VLP (human norovirus GI.1, UniProt Q83884 1-530 (Norovirus (strain entry), limits assumed))
- T1 construct: mature; full-length VP1 (ORF2) assembled as virus-like particle in baculovirus/Sf9; also called Norwalk VLP; NV
- T1 sequence (looked up): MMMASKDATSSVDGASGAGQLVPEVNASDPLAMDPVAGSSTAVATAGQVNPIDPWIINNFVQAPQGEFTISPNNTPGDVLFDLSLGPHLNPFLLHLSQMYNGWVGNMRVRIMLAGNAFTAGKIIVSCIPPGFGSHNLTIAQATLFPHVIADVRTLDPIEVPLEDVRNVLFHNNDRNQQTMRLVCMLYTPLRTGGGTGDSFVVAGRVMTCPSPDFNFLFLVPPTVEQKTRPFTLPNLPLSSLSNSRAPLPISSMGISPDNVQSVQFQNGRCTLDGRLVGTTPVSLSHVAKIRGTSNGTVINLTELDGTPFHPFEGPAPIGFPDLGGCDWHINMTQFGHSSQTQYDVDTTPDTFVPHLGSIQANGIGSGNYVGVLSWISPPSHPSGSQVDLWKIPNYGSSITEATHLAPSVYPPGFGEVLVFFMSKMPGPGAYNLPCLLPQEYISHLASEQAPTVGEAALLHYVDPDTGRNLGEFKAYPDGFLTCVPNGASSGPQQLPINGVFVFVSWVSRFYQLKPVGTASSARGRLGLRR
- assay_method_text: blockade ELISA: VLP binding to saliva Ly+
property_measured: EC50 (µg/mL)
Numbers only, in µg/mL.

Answered cases to consult:
[[record]]
binder = "VHH 6.3 (VHH, llama VHH, Norwalk (GI.1) library; also called clone 6.3) VHH: QVQLQQSGGGLVQPGGSLRLSCAASGSIFSIHTMGWYRQAPGKQRELVTTITTGGTTNYADSVKGRFTISRDDAKNTVYLQMNNLKPEDTAVYYCYALIQTASTTWYRQYWGQGTQVTVSS"
property_measured = "EC50"
value_observed = 2.04

[[record]]
binder = "VHH 9.8 (VHH, llama VHH, Norwalk library; His6 tag) VHH: QVKLQQSGGGLVQAGGSLRLSCAASGTFSRYAMGWFRQAPGKEREFVAAINWTGGSTYYADSVKGRFTISGDNAKNTVYLQMNSLKPGDTAVYYCAAEVHPGDYGLTYMQSQYEYDYWGQGTQVTVSS"
property_measured = "EC50"
value_observed = 1.72

[[record]]
binder = "VHH 13.1 (VHH, llama VHH, Norwalk library, subtractive biopanning; His6 tag; also called 13.2; clone 13) VHH: QVKLQESGGGWVQAGGSLRLSCAASALTASITTMGWFRQTPEKEREFLAAINWTGDYKYYADSVKGRFTISRDNAKNTVDLQMNQLKPEDTAVYYCAASKIRNDIYLNDYTWYQYWGQGTQVTVSS"
property_measured = "EC50"
value_observed = 2.27


What value of EC50 has been reported for the following binder? VHH 14.5 (VHH, llama VHH, Norwalk library; pHEN6, C-terminal His6 tag) VHH: DVQLQASGGGLVQAGGSLRLSCVASARTFSSYAMGWFRQAPGKEREFVAAISWSGASTDYADSVKGRFTISRDNAKKTVYLQMNTLKPEDTAVYYCAAHHITPTGSYYYSEPLPVDMVYDYWGQGTQVTVSS
1.56
